IC50 overview
target: KRAS G13D (Homo sapiens, UniProt P01116+P62937, G13D); assay: Ras-Raf disruption / FRET / MOA assay (BRAF RBD); assay type: biochemical; conditions: Ras-Raf disruption, with Cyclophilin A; read-out: KRAS G13D FRET data IC50
Sequence (P01116 1-169 isoform P01116-2 G13D limits assumed): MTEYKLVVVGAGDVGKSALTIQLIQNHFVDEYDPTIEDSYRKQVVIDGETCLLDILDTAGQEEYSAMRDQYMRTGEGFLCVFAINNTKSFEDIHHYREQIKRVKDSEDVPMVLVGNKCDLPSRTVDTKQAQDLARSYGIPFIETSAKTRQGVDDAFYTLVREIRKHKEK
Sequence (P62937 whole entry): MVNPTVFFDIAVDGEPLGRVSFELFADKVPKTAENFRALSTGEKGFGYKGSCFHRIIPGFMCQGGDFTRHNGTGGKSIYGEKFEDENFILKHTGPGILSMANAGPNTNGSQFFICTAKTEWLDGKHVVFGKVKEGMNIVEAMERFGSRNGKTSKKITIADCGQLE
OUTCOME MEASURE: IC50

>>> reported_measurement("CCn1c(-c2cccnc2[C@H](C)OC)c2c3cc(ccc31)-c1cc(O)cc(c1)C[C@H](NC(=O)[C@H](C(C)C)N1CCC3(CCN(C(=O)[C@@H]4CN4)C3)C1=O)C(=O)N1CCC[C@H](N1)C(=O)OCC(C)(C)C2 (stereo partly shown)")
"10 to 100 nM"
>>> reported_measurement("CCn1c(-c2cccnc2[C@H](C)OC)c2c3cc(ccc31)-c1cc(O)cc(c1)C[C@H](NC(=O)[C@H](C1CCCC1)N1CC[C@]3(CCN(C(=O)[C@@H]4N[C@@H]4C4CC4)C3)C1=O)C(=O)N1CCC[C@H](N1)C(=O)OCC(C)(C)C2")
"100 to 1000 nM"
>>> reported_measurement("CCn1c(-c2cccnc2[C@H](C)OC)c2c3cc(ccc31)-c1cc(O)cc(c1)C[C@H](NC(=O)[C@H](C(C)C)N(C)C(=O)N1CC(NC(=O)[C@H]3CN3)C1)C(=O)N1CCC[C@H](N1)C(=O)OCC(C)(C)C2 (atropisomer, axis not shown)")
"100 to 1000 nM"
>>> reported_measurement("CCn1c(-c2cccnc2[C@H](C)OC)c2c3cc(ccc31)-c1cc(O)cc(c1)C[C@H](NC(=O)[C@H](C(C)C)N(C)C(=O)N1C[C@@H]3[C@H]1CCN3C(=O)[C@@H]1CN1)C(=O)N1CCC[C@H](N1)C(=O)OCC(C)(C)C2 (atropisomer, axis not shown)")
"1000 to 10000 nM"
